Catalogue of kon values
Tested on: monomeric alpha-synuclein, P37840
Experimental details: SPR, captured mAb
Conditions used: remark: other sources report otherwise
# unit: M⁻¹ s⁻¹ | format: bare number

Examples from the recorded data:
Task: I have this binder here, ACI-7067-1112H8-Ab2 (antibody, V domains shown) VH: EVKLEESGGGLVQPGGSMKLSCAASGFTFTDAWMNWVRQSPEKGLEWIAEIRNKAHNYATYYAESVKGRFDISGDDSKSSVYLQMNNLRVEDTGIYYCTIYSYWGPGTLVTVSA VL: SIVMTQTPKFLLMSPGDRVTMTCTASQSVSNYVAWYQQKPGQSPKLLIYSASNRFTGVPDRFTGSGYGTDFTFTINTVQTEDMAVYFCQQDYTSPYTFGGGTKLEIK , and I need its recorded kon.
Output: 250000

Task: So what's the measured kon for this one? ACI-7089-4418F6-Ab1 (antibody, V domains shown) VH: QVQLQQSGAELARPGASVKVSCKASGYTFTSSGISWLKHRTGQGLEWIGDIYPRSGNTYYNEKFKDKATLTADKSSSTAYMELRSLTSEDSAVYFCSSGNYWGQGTTLTVSS VL: DIVITQDDLSNPVTSGESVSISCRSSKSLLYKDGKTYLNWFLQRPGQSPQLLIYLMSTRASGVSDRFSGSGSGTDFTLEISRVKAEDVGVYYCQQLLEYPLTFGAGTKLELK
Output: 81800

API: the following record is the query input.
Task: // kon lookup, key: ACI-7079-2603C1-Ab3 (antibody, V domains shown) VH: QVQLQQPGADLVKPGASVKLSCKASGYTFTSYWMQWTKQRPGQGLEWIGEIDPSDSYANYNQKFKGKATLTVDKYSSTAYMQLNSLTSEDSAVYYCALYDGPSYWGQGTLVTVS VL: ENVLTQSPAIMSASPGEKVTMTCSAGSSVSYMHWFQQKSSTSPKLWIYDTSKLPSGVPGRFSGSGSGNSYSLTISSMEAEDVATYYCFQGSGYPYTFGGGTKLEIK
Output: 5.58e+08
